biological target: recombinant cynomolgus monkey CD3ε/δ heterodimer (cynomolgus monkey) (UniProt Q95LI5); test: BLI (Octet), antigen on anti-Penta His sensor, antibody 50 nM
Sequence (Q95LI5 22-117, stated change not applied, chain 1 of 2): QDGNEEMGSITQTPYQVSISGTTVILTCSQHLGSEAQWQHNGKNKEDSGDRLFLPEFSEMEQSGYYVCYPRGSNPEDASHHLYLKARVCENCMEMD
Sequence (Q95LI8 22-105, stated change not applied, chain 2 of 2, further chain): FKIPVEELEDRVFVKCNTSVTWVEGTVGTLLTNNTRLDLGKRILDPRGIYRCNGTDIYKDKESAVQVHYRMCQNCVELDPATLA

>  <Binder>
C08 (antibody, human IgG1, lambda, L234A L235A, V domains shown) VH: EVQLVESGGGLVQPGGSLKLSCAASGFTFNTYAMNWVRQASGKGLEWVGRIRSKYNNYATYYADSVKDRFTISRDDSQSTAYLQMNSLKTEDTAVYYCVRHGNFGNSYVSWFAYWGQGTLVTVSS VL: QAVVTQEPSLTVSPGGTVTLTCRSSTGAVTTSNYANWFQQKPGQAPRGLIGGTNKRAPWTPARFSGSLLGDKAALTLSGAQPEDEAEYYCALWYSNLWVFGGGTKLTVLG

>  <kon>
166000 M⁻¹ s⁻¹

$$$$
>  <Binder>
F15 (antibody, human IgG1, lambda, L234A L235A, V domains shown) VH: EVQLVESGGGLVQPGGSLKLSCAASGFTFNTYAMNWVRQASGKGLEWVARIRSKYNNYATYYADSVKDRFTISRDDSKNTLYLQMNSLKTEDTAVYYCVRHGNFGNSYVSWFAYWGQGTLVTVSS VL: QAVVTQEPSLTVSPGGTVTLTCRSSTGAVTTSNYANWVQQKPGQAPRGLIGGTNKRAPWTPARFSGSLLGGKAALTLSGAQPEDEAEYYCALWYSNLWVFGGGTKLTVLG

>  <kon>
224000 M⁻¹ s⁻¹

$$$$
>  <Binder>
A15 (antibody, human IgG1, lambda, L234A L235A, V domains shown) VH: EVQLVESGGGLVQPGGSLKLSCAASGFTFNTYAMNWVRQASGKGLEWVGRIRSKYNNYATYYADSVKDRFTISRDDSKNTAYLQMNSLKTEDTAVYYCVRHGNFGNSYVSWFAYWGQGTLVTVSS VL: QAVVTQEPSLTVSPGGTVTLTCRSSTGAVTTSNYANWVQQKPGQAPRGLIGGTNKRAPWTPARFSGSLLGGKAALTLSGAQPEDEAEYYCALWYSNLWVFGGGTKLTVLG

>  <kon>
453000 M⁻¹ s⁻¹

$$$$

Reference for the values: patent US20200317779A1
